# System: SK-MEL-3 cells
# experimental-protocol: SK-MEL-3 cell proliferation assay
# Assay type: cell-based
# condition-description: Homo sapiens, SK-MEL3, 72 h, read-out: SK-MEL-3 IC50
readout-type: IC50

(Q) Read off the recorded IC50 for N#Cc1ccc(N2CCc3nc4[nH]c(=O)[nH]c4cc3C2)cc1F [Example 53]
(A) 9.6 nM

----------
# Test system: A2058 cells
# experimental-protocol: A2058 cell proliferation assay
# Format: cell-based
# condition-description: Homo sapiens, 96 hours, CellTiter-Glo
Binarize IC50 at 5 nM; below is yes, at or above is no.

Example entries and their recorded answers appear below.
In [3]: df
Out[3]:
                                   compound  class_label
0  O=c1[nH]c2cc3c(nc2[nH]1)CCC(c1ccc(F)cc1)C3 (centres unmarked)           no
1  O=c1[nH]c2cc3cc(-c4cnn(C(F)F)c4Cl)c(Cl)cc3nc2[nH]1           no

Note: attention shifts to another entry.
(Q) Input O=c1[nH]c2cc3c(nc2[nH]1)CCN(c1ccc(C(F)(F)F)nc1Cl)C3 ; condition: IC50 strictly below 5 nM. Does it hold?
(A) no

----------
# System: A2058 cells
# experimental-protocol: A2058 cell proliferation assay
# Assay type: cell-based
# condition-description: Homo sapiens, 96 hours, CellTiter-Glo
readout-type: pIC50
Please express pIC50 as -log10 of the molar concentration.

In [3]: df
Out[3]:
                                   compound  numeric_result
0  O=c1[nH]c2cc3cc(-c4cnn(C(F)F)c4Br)ccc3nc2[nH]1            9.52
1  O=c1[nH]c2cc3c(nc2[nH]1)CCN(c1ncc(F)cc1Cl)C3            7.35
2  O=c1[nH]c2cc3c(Cl)c(-c4cn(C(F)F)nc4Cl)ccc3nc2[nH]1            8.70
3  O=c1[nH]c2cc3cc(-c4ccc(C(F)(F)F)nc4Cl)ccc3nc2[nH]1            7.96
4  O=c1[nH]c2cc3c(nc2[nH]1)CC[C@@H](c1cnn(C(F)F)c1Cl)C3 (single isomer, unassigned)            8.75
5  O=c1[nH]c2cc3cc(-c4nn(C(F)F)cc4Cl)ccc3nc2[nH]1            8.41
6  N#Cc1ccc(N2CCc3nc4[nH]c(=O)[nH]c4cc3C2)c(Cl)c1            7.92
7  O=c1[nH]c2cc3cc(-c4onc(C(F)F)c4Cl)ccc3nc2[nH]1            9.72

(Q) Read off the recorded pIC50 for O=c1[nH]c2cc3cc(-c4ccc(C(F)F)cc4Cl)ccc3nc2[nH]1
(A) 8.28

(Q) Read off the recorded pIC50 for CNc1ccc(-c2ccc3nc4[nH]c(=O)[nH]c4cc3c2)c(Cl)n1
(A) 8.10

(Q) Read off the recorded pIC50 for O=c1[nH]c2cc3c(nc2[nH]1)CCN(c1ccc(F)cc1Cl)C3
(A) 7.42

(Q) Read off the recorded pIC50 for CNc1nc(Cl)ccc1-c1ccc2nc3[nH]c(=O)[nH]c3cc2c1
(A) 7.21

(Q) Read off the recorded pIC50 for O=c1[nH]c2cc3c(Cl)c(-c4ccc(F)cn4)ccc3nc2[nH]1
(A) 8.57

(Q) Read off the recorded pIC50 for O=c1[nH]c2cc3c(nc2[nH]1)CCN(c1cnn(C(F)F)c1Cl)C3
(A) 8.12

(Q) Read off the recorded pIC50 for O=c1[nH]c2cc3cc(-c4ccc(F)cc4Cl)ccc3nc2[nH]1
(A) 8.92

(Q) Read off the recorded pIC50 for O=c1[nH]c2cc3cc(-c4cnn(C(F)F)c4OC(F)F)ccc3nc2[nH]1
(A) 9.40

(Q) Read off the recorded pIC50 for O=c1[nH]c2cc3cc(-c4cnn(C(F)F)c4C(F)(F)F)ccc3nc2[nH]1
(A) 9.05

(Q) Read off the recorded pIC50 for [2H]C([2H])([2H])Oc1ccc(-c2ccc3nc4[nH]c(=O)[nH]c4cc3c2)c(Cl)n1
(A) 7.69
